# Test system: IGROV1 ovarian
# METHOD DESCRIPTION: NCI tumour cell line growth inhibition, 48 h; in the data active = GI50 below about 0.43 µM; inactive = the rest
Entry note: the call must match one of active, inactive

Some solved cases for reference:
>>> assigned_category("CC1(C)CCC2(C(=O)O)CC[C@]3(C)C(=CCC4C5(C)CC[C@H](OC6OC(C(=O)O)C(O)C(OC7OC(CO)C(O)C(O)C7O)C6OC6OC(CO)C(O)C(O)C6O)C(C)(C)C5CCC43C)C2C1 (stereo partly specified)")
"inactive"
>>> assigned_category("C#Cc1cccc(Nc2ncnc3ccc(-c4cnc(Cl)c(NS(C)(=O)=O)c4)cc23)c1")
"active"
>>> assigned_category("COc1cccc(-c2nc(-c3ccc(NC(=O)c4ccccc4)cc3)[nH]c2-c2ccnc(Br)c2)c1")
"inactive"
>>> assigned_category("O=S(=O)(NCCCNc1cc(-c2cn(-c3ccccc3)nc2-c2cccc(O)c2)ccn1)c1cccc2ccccc12")
"inactive"
>>> assigned_category("N=C1C(c2nc3ccccc3s2)=C(O)CN1c1ccc(Cl)cc1Cl")
"inactive"

Now turn to the next compound.
What outcome does the record of this test show for `C[C@@H](Oc1cc(NS(=O)(=O)N2CCC2)nc(SCc2cccc(F)c2F)n1)[C@@H](O)CO` ?
inactive
